target: aspartyl proteases, in particular, beta-secretase; assay: Ki of the compounds listed in Tables 1 and 2 (no method described); format: biochemical; settings: Table 1, compounds of formula Ia, W is -(CH2)n-
Heads up, the class ranges for Ki are group 1 (below 0.02 µM), group 2 (0.02 µM to below 0.2 µM), group 3 (0.2 µM or more)

Kindly identify the class of O=C(N[C@H](CO)CCCCNS(=O)(=O)c1ccc(Br)cc1)OCC1c2ccccc2-c2ccccc21 .
group 3

Which category does the recorded Ki put CC(C)CN([C@@H](CCCCNC(=O)OCc1ccccc1)C(=O)OCc1ccccc1)S(=O)(=O)c1ccc([N+](=O)[O-])cc1 in?
group 3

Into which category would you place CC(C)CN(CCC[C@H](NC(=O)OCC1c2ccccc2-c2ccccc21)C(=O)O)S(=O)(=O)c1ccc(Br)cc1 ?
group 3

Note: place this compound into its band. Item: CC(C)CN(C(CCCCNC(=O)C=Cc1ccccc1[N+](=O)[O-])C(=O)O)S(=O)(=O)c1ccc([N+](=O)[O-])cc1 (stereo not shown)
group 3

GET /class?item= CC(C)CN([C@@H](CCCCNC(=O)C=Cc1cccc([N+](=O)[O-])c1)C(=O)O)S(=O)(=O)c1ccc([N+](=O)[O-])cc1
group 3

Hello team, could you let me know which band the following compound falls into: CC(C)CN([C@@H](CCCCNC(=O)CCc1ccc2c(c1)OCO2)C(=O)O)S(=O)(=O)c1ccc(N)cc1
group 1

Each compound maps to one class by Ki. Which class for O=C(Cc1c[nH]c2ccccc12)N[C@@H](CCCCNS(=O)(=O)c1ccc(Br)cc1)C(=O)O ?
group 3

Class? Entry: CC(C)CN([C@@H](CCCCNS(=O)(=O)Cc1ccccc1)C(=O)O)S(=O)(=O)c1ccc([N+](=O)[O-])cc1
group 3

Note: place this compound into its band. Item: CC(C)CN([C@@H](CCCCNC(=O)COc1ccccc1)C(=O)O)S(=O)(=O)c1ccc([N+](=O)[O-])cc1
group 2

Lab log: CC(C)CN([C@@H](CCCCNC(=O)C1c2ccccc2Oc2ccccc21)C(=O)O)S(=O)(=O)c1ccc([N+](=O)[O-])cc1 — assign Ki category
group 2

Just checking, what class would you give Nc1ccc(S(=O)(=O)N[C@@H](CCCCNC(=O)OCC2c3ccccc3-c3ccccc32)C(=O)O)cc1 here?
group 3

Class (by measured Ki) for CC(C)CN([C@@H](CCCCNC(=O)CCc1c[nH]c2ccccc12)C(=O)O)S(=O)(=O)c1ccc([N+](=O)[O-])cc1
group 2

Entry Cc1ccc(S(=O)(=O)N(CC(C)C)C(CCCCNC(=O)OCC2c3ccccc3-c3ccccc32)C(=O)NO)cc1 (stereo not shown) belongs to which category?
group 3

Lab note: sort O=C(O)[C@H](CCCCNS(=O)(=O)c1ccc(Br)cc1)NS(=O)(=O)c1ccc(Br)cc1 into the matching Ki band.
group 3

Consider Cc1ccc(S(=O)(=O)N(CC(C)C)[C@@H](CCCCNC(=O)OCC2c3ccccc3-c3ccccc32)C(=O)O)cc1 . To which Ki class does it belong?
group 1

Hi, small favor: classify Cc1ccc(S(=O)(=O)N(CC(C)C)[C@@H](CCCCNC(=O)CCc2ccccc2)C(=O)O)cc1 by its Ki when you get a moment.
group 1

Which of the defined bands does the recorded Ki of CC(C)CN([C@@H](CCCCNC(=O)CCc1ccccc1N)C(=O)O)S(=O)(=O)c1ccc(N)cc1 sit within?
group 3

Lab log: CC(C)CN([C@@H](CCCCNC(=O)CCc1ccccc1)C(=O)O)S(=O)(=O)c1ccc(N)cc1 — assign Ki category
group 3
